Tested on: Amaranthus retoflexus (AMARE)
Experiment: Pre-emergence herbicidal glasshouse test
Type: in vivo
Settings: 250 g/ha, sprayed after one day cultivation, evaluated after 13 days
Please respond with reported percentage damage caused to the plant, AMARE for every item in the list.

According to the records, this molecule FC(F)(F)c1cn(Cc2ncc(Cl)cn2)c(CC2CCOC2)n1 (stereo not shown) [Compound 1.074] displays percentage damage caused to the plant, AMARE of 5 (5=81-100%)

percentage damage caused to the plant, AMARE for COCCc1nc(C(F)(F)F)cn1Cc1ncc(Cl)cn1 [Compound 1.018] is 5 (5=81-100%)

percentage damage caused to the plant, AMARE recorded for this molecule, N#CC1(c2nc(C(F)(F)F)cn2Cc2ncc(Cl)cc2F)CC1 [Compound 1.069] , is 5 (5=81-100%)

percentage damage caused to the plant, AMARE in this record for CC(=O)CCc1nc(C(F)(F)F)cn1Cc1ncc(Cl)cn1 [Compound 1.027] : 4 (4=61-80%)

// field: percentage damage caused to the plant, AMARE; key: N#CCCc1nc(C(F)(F)F)cn1Cc1ncc(Cl)cn1 [Compound 1.029] ; value = 5 (5=81-100%)

Record summary for CCCCc1nc(C(F)(F)F)cn1Cc1ccc(Cl)cn1 [Compound 1.055] : reported percentage damage caused to the plant, AMARE = 1 (1=0-20%)

The recorded percentage damage caused to the plant, AMARE for FC(F)(F)CCc1nc(C(F)(F)F)cn1Cc1ncc(Cl)cn1 [Compound 1.002] is 5 (5=81-100%)

FC(F)CCc1nc(C(F)(F)F)cn1Cc1ncc(Cl)cn1 [Compound 1.010] yielded percentage damage caused to the plant, AMARE of 5 (5=81-100%)

Lab note: measured percentage damage caused to the plant, AMARE of CCCCc1nc(C(F)F)cn1Cc1ncc(Cl)cc1F [Compound 1.054] was 3 (3=41-60%)

Data point: FC(F)c1ccn(CCc2nc(C(F)(F)F)cn2Cc2ncc(Cl)cn2)n1 [Compound 1.032] ; percentage damage caused to the plant, AMARE = 5 (5=81-100%)

Note to self: percentage damage caused to the plant, AMARE recorded for OCC(O)CCc1nc(C(F)(F)F)cn1Cc1ncc(Cl)cn1 (stereo not shown) [Compound 1.011] was 1 (1=0-20%)

# molecule CCOCc1nc(C(F)(F)F)cn1Cc1ncc(Cl)cn1 [Compound 1.039] ; its percentage damage caused to the plant, AMARE = 4 (4=61-80%)

Entry under test: CCCCc1nc(C(F)(F)F)cn1Cc1ccc(C#N)cn1 [Compound 1.056] . Its percentage damage caused to the plant, AMARE was 4 (4=61-80%)

Record summary for CCCCc1nc(C(F)(F)F)cn1Cc1ncc(Cl)cc1F [Compound 1.058] : reported percentage damage caused to the plant, AMARE = 5 (5=81-100%)

So for C#CCON=CCCc1nc(C(F)(F)F)cn1Cc1ncc(Cl)cn1 (single isomer, unassigned) [Compound 1.028] , the logged percentage damage caused to the plant, AMARE turned out to be 5 (5=81-100%)

percentage damage caused to the plant, AMARE for CCCCCc1nc(C(F)(F)F)cn1Cc1ncc(Cl)cn1 [Compound 1.019] is 5 (5=81-100%)

Recorded result, FC(F)(F)c1cn(Cc2ncc(Cl)cn2)c(CCl)n1 [Compound 1.071] , percentage damage caused to the plant, AMARE: 3 (3=41-60%)

Value of measured percentage damage caused to the plant, AMARE for the entry FC(F)c1nc(C(F)(F)F)cn1Cc1ncc(Cl)cn1 [Compound 1.070] : 5 (5=81-100%)

get_value(item= CON=CCCc1nc(C(F)(F)F)cn1Cc1ncc(Cl)cn1 (single isomer, unassigned) [Compound 1.007] , readout=percentage damage caused to the plant, AMARE) returns 5 (5=81-100%)
